Origin of measurements: PubChem BioAssay AID179

Tested on: CEM cells HIV-1 protection, formazan growth assay
protocol_summary: NCI AIDS Antiviral Assay
conditions: measured here: growth of uninfected CEM cells
Where a SMILES comes first, the peptide text is derived from it. Bridges are numbered along the chain shown (N, C = ends). [ ]: non-standard residue; d: D form. Orn = NCCC[CH](N)C(=O)O
measured_quantity: IC50

O=S1c2ccccc2N=C(c2cccs2)CC1c1ccccc1O (centres undefined): > 10.7 µM
Cc1ccc(CCC(=O)C(=O)O)s1: > 479 µM
CN1C(=O)C(C)(O)c2ccccc21 (centres undefined): 550 µM
Cc1ccc(C(=O)Nc2ccc(CP(=O)(O)O)cc2CP(=O)(O)O)cc1NC(=O)c1cccc(NC(=O)Nc2cccc(C(=O)Nc3cc(C(=O)Nc4ccc(CP(=O)(O)O)cc4CP(=O)(O)O)ccc3C)c2)c1: > 100 µM
Clc1ccccc1CN1COc2c(ccc3cccnc23)C1: 1.58 µM

Param item: O=C(CC1Sc2ccccc2NC1=O)Nc1ccc([N+](=O)[O-])cc1[N+](=O)[O-] (centres undefined) ; param system: CEM cells HIV-1 protection, formazan growth assay; output IC50: > 67.6 µM

Field IC50 (system: CEM cells HIV-1 protection, formazan growth assay) for entry CCC1C[N+]23CCc4c([nH]c5ccccc45)C2CC1CC3 (centres undefined) = > 57.5 µM

Hey, CEM cells HIV-1 protection, formazan growth assay data for NC(=O)C1CCCNC(=O)CC(NC(=O)C(N)Cc2ccc(O)cc2)C(=O)NC(Cc2ccccc2)C(=O)N1 (centres undefined) (H-YDF[Orn]-NH2; lactam 2-4; configuration not given here) : IC50 came out at > 100 µM

For the compound CCOC(=O)C(CC#Cc1ccc(C#CCC(NC(C)=O)C(=O)OCC)cc1)NC(C)=O (centres undefined) , the measured IC50 on CEM cells HIV-1 protection, formazan growth assay was > 200 µM
